tested on: A498 renal; assay: NCI-60 one-dose screen, 48 h; details: 10 µM unless noted
This is part of a sample that, as a whole, favours compounds with a hit. Of some 83,000 tested, about 20% had one in any assay. Activity calls are given as the source filed them. How the source made its calls: active means growth percent below 10; inactive means the rest.
Would you mind answering with one of these outcomes? active, inactive

Please review the entries below; each comes with its answer.
In this assay, the call recorded for O=P1(N(CCCl)CCCl)NCCCO1 (stereo unspecified) was what? inactive

Hello, I am checking results. What call was entered for O=Cc1cn(Cc2ccccc2)c2ccccc12 ? active

Fill in: this test's call for Cc1cc(NC(=O)NCCCOc2ccc(N3C(N)=NC(N)=NC3(C)C)cc2Cl)ccc1S(=O)(=O)F is ___ inactive

Test call, this molecule: C[C@@H]1C/C=C\C(=O)O[C@H](/C=C/C#C/C=C/C(C)(C)[C@@H](O)c2cccc(O)c2Br)[C@@H](C)/C=C/[C@H](C)C[C@H](OC(N)=O)C1 inactive

Tell me the recorded outcome of this test for N[C@@H](CCC(=O)CCl)C(=O)O . inactive

// switching to the query molecule
Recorded test call requested for CCC(Br)(CC)C(=O)NC(N)=O inactive
